test-description: PK in rats
Assay type: in vivo
condition-context: male, Wistar Hannover, plasma; rat, IV 1.0 mg/kg; read-out: CLp
readout-type: clearance (mL/min/kg)
Numeric answer only, unit mL/min/kg assumed.

get_value(item= C#C[C@]1(CO)O[C@@H](n2ccc3c(N)nc(Cl)nc32)C[C@@H]1O , readout=clearance) returns 18.1

* * *

test-description: PK in rhesus monkeys (plasma)
Format: in vivo
condition-context: rhesus monkey, plasma, po, 50 mg/kg, monkeys, oral 50 mg/kg, 30 hr; read-out: Concentration in plasma, individual subjects
readout-type: concentration at 30 h (nM)
Numeric answer only, unit nM assumed.

get_value(item= C#C[C@]1(CO)O[C@@H](n2ccc3c(N)nc(Cl)nc32)C[C@@H]1O , readout=concentration at 30 h) returns 1040

* * *

test-description: PK in rhesus monkeys (plasma)
Type: in vivo
condition-context: rhesus monkey, plasma, po, 50 mg/kg, monkeys, oral 50 mg/kg, 168 hr; read-out: Arithmetic Mean Concentration in plasma
readout-type: concentration at 168 h
Answer format reminder: number followed by unit.

get_value(item= C#C[C@]1(CO)O[C@@H](n2ccc3c(N)nc(Cl)nc32)C[C@@H]1O , readout=concentration at 168 h) returns 0.01 µM

* * *

test-description: PK in rats
Format: in vivo
condition-context: male, Wistar Hannover; rat, plasma, IV 1.0 mg/kg; read-out: t½ (converted)
Method: All animal procedures were conducted according to the highest ethical standards using procedures approved by the Institutional Animal Care and Use Committee of Merck & Co., Rahway, NJ, USA (APS 2016-600774-FEB). […] The concentrations of MK-8527 in plasma were determined by LC–MS/MS assays following a protein precipitation step. […] Quantification was done by monitoring the transition of m/z 309 to m/z 169 or 133 for MK-8527. […]
readout-type: half-life (h)
Numeric answer only, unit h assumed.

get_value(item= C#C[C@]1(CO)O[C@@H](n2ccc3c(N)nc(Cl)nc32)C[C@@H]1O [Compound 12] , readout=half-life) returns 2.3

* * *

test-description: PK in rhesus monkeys (plasma)
Format: in vivo
condition-context: rhesus monkey, plasma, po, 50 mg/kg, monkeys, oral 50 mg/kg, 72 hr; read-out: Concentration in plasma, individual subjects
readout-type: concentration at 72 h (nM)
Numeric answer only, unit nM assumed.

get_value(item= C#C[C@]1(CO)O[C@@H](n2ccc3c(N)nc(Cl)nc32)C[C@@H]1O , readout=concentration at 72 h) returns 90

* * *

test-description: PK in rhesus monkeys (plasma)
Assay type: in vivo
condition-context: rhesus monkey, plasma, po, 50 mg/kg, monkeys, oral 50 mg/kg, 30 hr; read-out: Arithmetic Mean Concentration in plasma
readout-type: concentration at 30 h (nM)
Numeric answer only, unit nM assumed.

get_value(item= C#C[C@]1(CO)O[C@@H](n2ccc3c(N)nc(Cl)nc32)C[C@@H]1O , readout=concentration at 30 h) returns 790

* * *

test-description: PK in rhesus monkeys (plasma)
Assay type: in vivo
condition-context: rhesus monkey, plasma, po, 50 mg/kg, monkeys, oral 50 mg/kg, 48 hr; read-out: Arithmetic Mean Concentration in plasma
readout-type: concentration at 48 h (nM)
Numeric answer only, unit nM assumed.

get_value(item= C#C[C@]1(CO)O[C@@H](n2ccc3c(N)nc(Cl)nc32)C[C@@H]1O , readout=concentration at 48 h) returns 220

* * *

target-desc: human DNA polymerases α and β and human mitochondrial DNA polymerase γ
test-description: Human DNA polymerase inhibition assays (summary for α, β, γ)
condition-context: read-out: IC50 values against human DNA polymerases tested
pIC50: −log10 of the molar value.
readout-type: pIC50

get_value(item= C#C[C@]1(COP(=O)(O)OP(=O)(O)OP(=O)(O)O)O[C@@H](n2ccc3c(N)nc(Cl)nc32)C[C@@H]1O , readout=pIC50) returns ≤ 4.02

* * *

test-description: PK in rhesus monkeys (plasma)
Assay type: in vivo
condition-context: rhesus monkey, plasma; monkey, oral 1 mg/kg
readout-type: bioavailability (%)
Numeric answer only, unit % assumed.

get_value(item= C#C[C@]1(CO)O[C@@H](n2ccc3c(N)nc(Cl)nc32)C[C@@H]1O , readout=bioavailability) returns 100

* * *

target-desc: UniProt:P09884
Sequence (P09884 1-1462): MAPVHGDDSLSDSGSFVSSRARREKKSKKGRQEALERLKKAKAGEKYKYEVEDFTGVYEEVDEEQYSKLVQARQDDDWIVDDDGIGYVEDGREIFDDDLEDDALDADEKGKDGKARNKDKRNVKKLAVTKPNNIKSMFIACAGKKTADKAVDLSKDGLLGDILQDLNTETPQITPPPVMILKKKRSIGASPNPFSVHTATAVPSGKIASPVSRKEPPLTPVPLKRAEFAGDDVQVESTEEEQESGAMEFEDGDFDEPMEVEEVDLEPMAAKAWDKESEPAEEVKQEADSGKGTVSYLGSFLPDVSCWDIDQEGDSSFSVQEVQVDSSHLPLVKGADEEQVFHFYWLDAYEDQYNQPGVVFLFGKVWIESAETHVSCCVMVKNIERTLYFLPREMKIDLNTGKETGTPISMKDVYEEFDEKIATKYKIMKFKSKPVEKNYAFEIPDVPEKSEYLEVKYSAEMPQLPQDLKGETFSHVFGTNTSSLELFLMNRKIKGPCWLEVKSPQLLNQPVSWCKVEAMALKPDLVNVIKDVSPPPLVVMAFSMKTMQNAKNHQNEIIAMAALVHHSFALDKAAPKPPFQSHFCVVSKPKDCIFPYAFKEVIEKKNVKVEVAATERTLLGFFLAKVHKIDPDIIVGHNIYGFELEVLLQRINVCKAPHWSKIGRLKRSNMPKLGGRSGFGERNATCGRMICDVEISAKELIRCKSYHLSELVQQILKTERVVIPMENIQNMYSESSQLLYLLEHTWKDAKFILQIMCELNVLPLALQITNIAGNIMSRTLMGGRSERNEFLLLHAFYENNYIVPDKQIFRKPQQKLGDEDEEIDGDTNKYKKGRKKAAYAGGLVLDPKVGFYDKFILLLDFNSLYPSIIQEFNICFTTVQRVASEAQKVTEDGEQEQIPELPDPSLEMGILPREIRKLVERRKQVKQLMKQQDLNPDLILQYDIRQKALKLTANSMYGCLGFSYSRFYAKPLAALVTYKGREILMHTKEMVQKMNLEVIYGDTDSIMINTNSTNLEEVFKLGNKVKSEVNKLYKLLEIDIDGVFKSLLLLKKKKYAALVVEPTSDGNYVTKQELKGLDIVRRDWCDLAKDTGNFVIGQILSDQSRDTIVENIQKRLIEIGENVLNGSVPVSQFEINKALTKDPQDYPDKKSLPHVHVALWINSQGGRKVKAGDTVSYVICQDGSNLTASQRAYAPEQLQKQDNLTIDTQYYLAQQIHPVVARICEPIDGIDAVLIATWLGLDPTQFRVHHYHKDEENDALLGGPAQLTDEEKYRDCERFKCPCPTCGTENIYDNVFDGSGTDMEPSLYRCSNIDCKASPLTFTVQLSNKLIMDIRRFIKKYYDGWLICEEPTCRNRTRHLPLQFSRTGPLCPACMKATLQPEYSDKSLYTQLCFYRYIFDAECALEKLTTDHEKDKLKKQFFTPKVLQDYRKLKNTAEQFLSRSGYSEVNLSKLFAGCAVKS
readout-type: IC50 (µM)
Numeric answer only, unit µM assumed.

get_value(item= C#C[C@]1(COP(=O)(O)OP(=O)(O)OP(=O)(O)O)O[C@@H](n2ccc3c(N)nc(Cl)nc32)C[C@@H]1O , readout=IC50) returns 95

* * *

test-description: PK in rhesus monkeys (plasma)
Type: in vivo
condition-context: rhesus, rhesus monkey, plasma, po, 50 mg/kg, monkeys, oral 50 mg/kg, 4 hr; read-out: Arithmetic Mean Concentration in plasma
readout-type: concentration at 4 h (µM)
Numeric answer only, unit µM assumed.

get_value(item= C#C[C@]1(CO)O[C@@H](n2ccc3c(N)nc(Cl)nc32)C[C@@H]1O [Compound 12] , readout=concentration at 4 h) returns 15.8

* * *

test-description: PK in rhesus monkeys (plasma)
Assay type: in vivo
condition-context: rhesus monkey, plasma, po, 50 mg/kg, monkeys, oral 50 mg/kg, 1 hr; read-out: Arithmetic Mean Concentration in plasma
readout-type: concentration at 1 h (µM)
Numeric answer only, unit µM assumed.

get_value(item= C#C[C@]1(CO)O[C@@H](n2ccc3c(N)nc(Cl)nc32)C[C@@H]1O [Compound 12] , readout=concentration at 1 h) returns 16.4

* * *

test-description: PK in rhesus monkeys (plasma)
Type: in vivo
condition-context: rhesus, rhesus monkey, plasma, po, 50 mg/kg, monkeys, oral 50 mg/kg, 24 hr; read-out: Arithmetic Mean Concentration in plasma
readout-type: concentration at 24 h (nM)
Numeric answer only, unit nM assumed.

get_value(item= C#C[C@]1(CO)O[C@@H](n2ccc3c(N)nc(Cl)nc32)C[C@@H]1O , readout=concentration at 24 h) returns 1750
